Listed here: items and their measured pIC50.
- target.under.test: JAK1 (Homo sapiens (Human), UniProt P23458)
- Sequence (P23458 whole entry): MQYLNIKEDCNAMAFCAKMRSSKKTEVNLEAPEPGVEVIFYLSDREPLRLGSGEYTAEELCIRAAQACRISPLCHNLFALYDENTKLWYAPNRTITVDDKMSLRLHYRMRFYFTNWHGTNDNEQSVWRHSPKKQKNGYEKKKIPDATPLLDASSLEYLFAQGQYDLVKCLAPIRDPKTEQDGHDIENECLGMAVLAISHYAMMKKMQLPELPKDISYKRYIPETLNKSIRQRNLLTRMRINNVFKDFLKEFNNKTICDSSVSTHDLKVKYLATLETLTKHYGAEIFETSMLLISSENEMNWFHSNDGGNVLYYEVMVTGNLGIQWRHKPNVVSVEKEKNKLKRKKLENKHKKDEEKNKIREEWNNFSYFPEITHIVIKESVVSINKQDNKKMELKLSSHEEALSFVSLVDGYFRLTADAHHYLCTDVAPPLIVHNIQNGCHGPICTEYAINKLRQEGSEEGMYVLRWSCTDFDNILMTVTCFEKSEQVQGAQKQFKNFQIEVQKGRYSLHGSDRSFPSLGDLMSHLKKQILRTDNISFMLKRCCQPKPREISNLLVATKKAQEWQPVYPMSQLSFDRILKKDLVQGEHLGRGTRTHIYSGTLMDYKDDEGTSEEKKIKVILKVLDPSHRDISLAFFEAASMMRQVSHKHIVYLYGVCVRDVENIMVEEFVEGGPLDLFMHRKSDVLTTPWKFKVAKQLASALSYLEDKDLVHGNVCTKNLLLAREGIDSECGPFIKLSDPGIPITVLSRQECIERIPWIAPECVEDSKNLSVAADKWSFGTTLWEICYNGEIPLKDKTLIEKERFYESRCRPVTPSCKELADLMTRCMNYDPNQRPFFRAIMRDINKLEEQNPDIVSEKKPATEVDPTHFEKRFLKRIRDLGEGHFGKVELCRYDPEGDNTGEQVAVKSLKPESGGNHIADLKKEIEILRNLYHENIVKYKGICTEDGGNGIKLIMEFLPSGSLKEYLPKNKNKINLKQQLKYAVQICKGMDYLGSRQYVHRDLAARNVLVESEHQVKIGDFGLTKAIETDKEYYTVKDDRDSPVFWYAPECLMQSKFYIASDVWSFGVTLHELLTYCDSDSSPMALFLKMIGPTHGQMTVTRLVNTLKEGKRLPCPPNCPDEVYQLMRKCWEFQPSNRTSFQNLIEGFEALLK
- procedure.details: Analysis of JAK1 activity inhibition ability (ADP-Glo Kinase Assay)
- Type: biochemical
- condition.notes: JAK1 enzyme, ADP-Glo luminescence, ATP 250 uM, IRS-itide substrate, 30° C. 40 minutes; read-out: IC50
pIC50: −log10 of the molar value.

input: Recorded pIC50 for Cc1cc(NS(=O)(=O)C2CCC2)ccc1-c1cc(NC(=O)C2CC2)nc2[nH]ccc12 , please?
output: 6.70 to 7.70

input: Next: CCCS(=O)(=O)Nc1c(F)cc(-c2cc(NC(=O)C3CC3)nc3[nH]ccc23)cc1F
output: 6.70 to 7.70

input: Next: C[C@@H]1CN(C(=O)c2ccncc2F)CC=C1c1cc(NC(=O)C2CC2)nc2[nH]ccc12
output: > 7.70

Turning now to a further record.
input: Recorded pIC50 for N#CCC(=O)c1ccc(-c2cc(NC(=O)C3CC3)nc3[nH]ccc23)cc1 , please?
output: < 6.70
